Assay: MM1S cell viability effects, profiling panel, calcein-AM fluorescence, 48 h, basal (AID 1165);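 also: viability of MM1S multiple myeloma cells under basal unstimulated conditions; test concentration not given here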
Settings: higher = more signal
measure name: z-score
The answer should be a number; do not append a unit.

Observe how each entry below is paired with its result.
COC(=O)[C@@]1(Cc2ccc(F)cc2)[C@H]2c3cc(C(=O)N4CCCC4)n(CCc4ccc(O)c(O)c4)c3C[C@H]2CN1C(=O)c1ccccc1 ... -3.48
COCCOC(=O)N1C(=O)[C@@]2(c3cc(C#CCCO)ccc31)[C@H](C(=O)Nc1nc3ccccc3s1)[C@H]1C(=O)O[C@H](c3ccccc3)[C@H](c3ccccc3)N1[C@@H]2c1ccccc1OCCO ... -0.965

Continue with the compound presented below.
Give the measured z-score of `COc1ccc([Si](C)(C)[C@@H]2[C@@H](CCO)O[C@]3(C(=O)N(Cc4ccc(N5CCCCC5=O)cc4)c4ccccc43)[C@H]2C)cc1` .
-2.8

###

Test: E. coli acrAB mutant growth effects, primary screen, E. coli filamentation inducers, strain DRC39, OD650, 48 h (AID 1179);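 also: screen aims at cell division blockers that make cells filament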
Details: E. coli DRC39 delta-acrAB growth, higher = more signal, called active from +8 up or from −8 down
measure name: z-score
Lab note: write the figure by itself, no unit.

Reference set (4 entries):
O=C1c2ccccc2[C@](Cc2ccccc2I)(C(=O)NCC(F)(F)F)[C@H](c2ccc(CO)cc2)N1C1CCCCC1 ... 0.743
[N-]=[N+]=NCc1ccccc1C[C@@]1(C(=O)N2CCOCC2)N=C(c2ccc(OCCCO)cc2)O[C@@H]1c1ccccc1 ... -0.274
COc1ccc([Si](C)(C)[C@@H]2[C@@H](CC(=O)N3Cc4ccccc4C[C@H]3CO)O[C@]3(C(=O)N(C)c4ccccc43)[C@H]2C)cc1 ... 0.403
CC(C)C(=C=CC[C@H](O)c1cccc(OCCO)c1)C[C@H](O)c1cc(Cl)cc(Cl)c1O ... 0.709

--- query ---
Which z-score value is on record for C=CCC(OC(C)=O)[C@@H]1[C@@H](N(Cc2cccc3ccccc23)C(=O)Cc2ccc(OC)cc2)c2cc(OCCCO)ccc2N1C(=O)c1ccc2ccccc2n1 (stereo not given in full) ?
0.284

###

Target: Concanavalin-A (Canavalia ensiformis)
Assay: ConA small-molecule binders, primary screen, artefact control for SMM control protein annotation, biochemical, small-molecule microarray, Alexa647 label, 635 nm (AID 1127);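 also: z combines 667 nm emission intensity with signal-to-noise across three replicate slides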
Settings: ConA-A647 binding fluorescence, higher = more signal
measure name: composite z-score

I would be grateful if you could share the reported composite z-score for `COCCOC(=O)N1C(=O)[C@@]2(c3cc(C#CC4(O)CCCCCC4)ccc31)[C@H](c1ccc(O)cc1)N1[C@H](c3ccccc3)[C@H](c3ccccc3)OC(=O)[C@H]1[C@@H]2C(=O)NC[C@H](O)c1ccccc1` .
1.02

Given the molecule `O=C1O[C@H](c2ccccc2)[C@H](c2ccccc2)N2[C@H]1[C@@H](C(=O)O)[C@]1(C(=O)Nc3ccc(C#CC4=CCCCC4)cc31)[C@H]2c1ccc(O)cc1` , what is its reported composite z-score?
0.997

Sample `C=C(C(=O)CC[C@@H](OC(C)=O)c1ccc(CO)o1)C(C)C` — what was its composite z-score?
0.771

Which composite z-score value is on record for `C[N+](C)(C)CCCCCCNC(=O)[C@H]1C[C@H]2C(=O)NCC(=O)N2[C@H]1c1ccc(O)cc1` ?
0.758

Suppose we examine the molecule CN1C(=O)C2C=CC(C(O)c3cccc4ccccc34)N(N3CCCCC3)C2C1=O (configuration not stated) ; what composite z-score value has been reported?
1.17

Consider the molecule shown here: `COC(=O)[C@@]1(Cc2ccc(F)cc2)[C@H]2c3cc(C(=O)N4CCCC4)n(CCc4ccc(O)c(O)c4)c3C[C@H]2CN1C(=O)c1ccccc1` What is its recorded composite z-score?
-0.697

Query (molecule): `COC(=O)c1c(CC[C@@H](CO)NC(=O)N2CCC[C@H]2Cn2cc(Cc3ccccc3)nn2)oc(C(C)=O)c1C(=O)OC` ; field requested: composite z-score
0.488
